Reported normalized growth values for the following compounds.
assay summary: chemical genetic growth profiling, strain panel (AID 1159580);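 note: tested at 20 µM; growth read once vehicle control cultures reached saturation at 30 °C; 1 = growth at the plate median or of vehicle wells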
reported conditions: S. cerevisiae deletion strains, growth OD, locus YMR219W, strain ESC1, active compounds read low
Among all 5,500 compounds or so, about 2,000 (36%) were called active. Roughly 18% stayed inconclusive and do not appear here. This is one part of the list.
# print the numeric value only

Hello, please tell me recorded normalized growth for this one: "O=C(N/N=C\c1ccccc1Cl)N/N=C\c1ccccc1Cl"
1

Fill in normalized growth for record "Cc1ccc(OCC(=O)NN)c2c1CCC2"
0.991

Give the measured normalized growth for "CCCCCn1c(Sc2ncc([N+](=O)[O-])s2)n[nH]c1=O"
0.624

For "Cc1onc(-c2c(Cl)cccc2Cl)c1C(=O)N1CCN(c2ncccc2C(F)(F)F)CC1" , write its normalized growth.
0.991

Query normalized growth for "FC(F)(F)c1ccc(-c2nc(-c3ccc4c(c3)OCCCO4)cs2)cc1"
1.01

Return normalized growth (reported value) for this compound: "CSC(=NCc1cccnc1)NC#N"
1

Give recorded normalized growth. "Cc1cc(Br)c(OCC(=O)NN)c2c1CCC2"
1

Recall and state the measured normalized growth for "c1ccc(Sc2c(-c3ccccc3)nc3ccccn23)cc1" .
0.897

Tell me normalized growth reported for "CC(C)(C)OC(=O)NC1CCN(C(=O)c2ccc(Cl)cc2Cl)CC1"
0.996

Look up normalized growth of "CC(=O)c1csc(-c2ccc(C(F)(F)F)cc2)n1" and report it.
0.977

Give the reported normalized growth for this compound. "CC(C)(C)C(=O)N1CCN(c2ncccc2C(F)(F)F)CC1"
0.99

----------
assay summary: chemical genetic growth profiling, strain panel (AID 1159580);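 note: tested at 20 µM; growth read once vehicle control cultures reached saturation at 30 °C; 1 = growth at the plate median or of vehicle wells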
reported conditions: S. cerevisiae deletion strains, growth OD, locus YDR162C, strain NBP2
Out of some 5,500 compounds screened, about 2,000 (36%) were called active. Another 18% or so got no clear call; they are omitted. Rule as the data show it: active = normalized growth mostly below about 0.91 (no sharp cut-off); inconclusive = no clear call, values can overlap the other calls; inactive = mostly above about 0.92. The list shows a part of the results.
Bench note: report the call from 1 = active, -1 = inactive

Past entries and their recorded results:
[
  {
    "compound": "NC(=O)CC[C@@H](N)C(=O)O",
    "assigned class": -1
  },
  {
    "compound": "CC1(C)O[C@@H]2CC3C4CCC5=CC(=O)C=C[C@]5(C)[C@@]4(F)[C@@H](O)C[C@]3(C)[C@]2(C(=O)CO)O1 (some centres undefined)",
    "assigned class": -1
  },
  {
    "compound": "C[C@@H]1CC[C@@]2(OC1)OC1C(O)C3C4CC[C@H]5C[C@H](O[C@@H]6O[C@H](CO)[C@H](O[C@@H]7O[C@H](CO)[C@@H](O)[C@H](O[C@@H]8OC[C@@H](O)[C@H](O)[C@H]8O)[C@H]7O[C@@H]7O[C@H](CO)[C@H](O)[C@H](O[C@@H]8O[C@H](CO)[C@@H](O)[C@H](O)[C@H]8O)[C@H]7O)[C@H](O)[C@H]6O)[C@H](O)C[C@]5(C)C4CC[C@]3(C)C1[C@@H]2C (some centres undefined)",
    "assigned class": 1
  }
]

# lookup: test call for "O=c1c(-c2ccccc2)coc2cc(O)cc(O)c12"
1

----------
assay summary: chemical genetic growth profiling, strain panel (AID 1159580);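 note: tested at 20 µM; growth read once vehicle control cultures reached saturation at 30 °C; 1 = growth at the plate median or of vehicle wells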
reported conditions: S. cerevisiae deletion strains, growth OD, locus YNL067W, strain RPL9B, active compounds read low
Hit rate of the full screen: of about 5,500 compounds, about 2,000 (36%) were called active. Inconclusive results (about 18%) are left out. This is one part of the list.
Rule for this label: 1.0 means normalized growth is less than 1; 0.0 means normalized growth is at least 1.

[
  {
    "molecule": "CC1(C)O[C@@H]2CC3C4C[C@H](F)C5=CC(=O)C=CC5(C)C4C(O)CC3(C)[C@]2(C(=O)CO)O1 (some centres undefined)",
    "assigned class": 0.0
  },
  {
    "molecule": "Cc1cc(=O)c2c(O)c3c(cc2o1)OCC(C)CC3 (centres undefined)",
    "assigned class": 1.0
  },
  {
    "molecule": "CC(C)=CCc1c2c(c(O)c3c(=O)c(O)c(-c4ccccc4)oc13)C=CC(C)(C)O2",
    "assigned class": 1.0
  }
]

Problem: For the molecule C=CCCCCCCCCCCCC(O)CC(O)CO (centres undefined) , is normalized growth under 1?
1.0

Does the reported normalized growth of the following molecule sit strictly below 1? "CC1=CCc2c(cc3oc(C)cc(=O)c3c2O)OC1"
1.0

Origin of values: PubChem BioAssay AID1159580
